# tgt: ACE2 protein (Homo sapiens (Human)), Q9BYF1
# Sequence (Q9BYF1 18-740 limits assumed): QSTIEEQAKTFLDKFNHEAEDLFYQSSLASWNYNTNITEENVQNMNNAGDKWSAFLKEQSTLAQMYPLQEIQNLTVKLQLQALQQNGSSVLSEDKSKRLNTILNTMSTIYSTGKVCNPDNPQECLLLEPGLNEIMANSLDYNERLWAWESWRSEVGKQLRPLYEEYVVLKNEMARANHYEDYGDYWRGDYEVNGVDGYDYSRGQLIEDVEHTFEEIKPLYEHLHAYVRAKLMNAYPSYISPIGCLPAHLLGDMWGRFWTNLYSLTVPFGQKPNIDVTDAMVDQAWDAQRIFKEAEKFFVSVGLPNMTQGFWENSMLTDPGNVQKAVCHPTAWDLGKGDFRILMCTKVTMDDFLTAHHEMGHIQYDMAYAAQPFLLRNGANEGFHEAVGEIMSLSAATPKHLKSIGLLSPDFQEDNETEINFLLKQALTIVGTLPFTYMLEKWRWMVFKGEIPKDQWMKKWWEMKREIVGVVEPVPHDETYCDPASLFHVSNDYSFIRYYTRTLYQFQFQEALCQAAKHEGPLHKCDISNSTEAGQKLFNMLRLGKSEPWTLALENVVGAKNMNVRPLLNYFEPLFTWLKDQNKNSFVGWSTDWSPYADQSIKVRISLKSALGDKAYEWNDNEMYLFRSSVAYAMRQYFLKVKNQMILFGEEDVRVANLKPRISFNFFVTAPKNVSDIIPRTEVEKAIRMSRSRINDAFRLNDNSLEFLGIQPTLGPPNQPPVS
# experiment: fluorescence polarisation direct binding, 1 nM fluorescein tracer, ACE2 titrated
Numbered stars: 1 amine (or outer) side, 2 acyl side, 3 side chain; on linkers, the order of the positions; unused ones are H or OH. Bridge positions count the residues as written; N and C are the ends. Square brackets hold non-standard residues; d marks the D form. Ends that are not written are not given here. TATA = O=C(CC[*:1])N1CN(C(=O)CC[*:2])CN(C(=O)CC[*:3])C1; 1Nal = N[C@@H](Cc1cccc2ccccc12)C(=O)O; Aib = CC(C)(N)C(=O)O; Sar = CNCC(=O)O
measurement name: pKd
pKd (log units): -log10 of the concentration in mol/L.

Known results for binders:
* ACHKFPCRDPQQYLFCA[Sar][Sar][Sar][Sar][Sar][Sar]K(fluorescein) (linker 2-7-16 via TATA) [BCY15288] | 6.65
* ACVRSHCSSLLPRIHCA[Sar][Sar][Sar][Sar][Sar][Sar]K(fluorescein) (linker 2-7-16 via TATA) [BCY15283] | 7.66
* ACLELYQCWRGKCA[Sar][Sar][Sar][Sar][Sar][Sar]K(fluorescein) (linker 2-8-13 via TATA) [BCY15420] | 7.01
* ACLEVYKCWRGKCA[Sar][Sar][Sar][Sar][Sar][Sar]K(fluorescein) (linker 2-8-13 via TATA) [BCY15422] | 6.89
* ACAPILCRWAERQGYCA[Sar][Sar][Sar][Sar][Sar][Sar]K(fluorescein) (linker 2-7-16 via TATA) [BCY15419] | 7.69
* ACNAVLCSWARANSFCA[Sar][Sar][Sar][Sar][Sar][Sar]K(fluorescein) (linker 2-7-16 via TATA) [BCY15423] | 8.26
* ACAN[Aib]VLCSWARANSFCA[Sar][Sar][Sar][Sar][Sar][Sar]K(fluorescein) (linker 2-8-17 via TATA) [BCY16871] | 8.24
* ACNAVLCS[1Nal]ARANSFCA[Sar][Sar][Sar][Sar][Sar][Sar]K(fluorescein) (linker 2-7-16 via TATA) [BCY16866] | 8.59
* ACNAVLCSW[Aib]RANSFCA[Sar][Sar][Sar][Sar][Sar][Sar]K(fluorescein) (linker 2-7-16 via TATA) [BCY16872] | 8.54
* ACPSQYKCWRGKCA[Sar][Sar][Sar][Sar][Sar][Sar]K(fluorescein) (linker 2-8-13 via TATA) [BCY15421] | 6.87

# next binder below
Could you tell me which pKd is on file for ACGRQFCHTLMPRHLCA[Sar][Sar][Sar][Sar][Sar][Sar]K(fluorescein) (linker 2-7-16 via TATA) [BCY15284] ?
7.18
